Target: recombinant human MGAT2 (Homo sapiens (Human), UniProt Q3SYC2)
Sequence (Q3SYC2 whole entry): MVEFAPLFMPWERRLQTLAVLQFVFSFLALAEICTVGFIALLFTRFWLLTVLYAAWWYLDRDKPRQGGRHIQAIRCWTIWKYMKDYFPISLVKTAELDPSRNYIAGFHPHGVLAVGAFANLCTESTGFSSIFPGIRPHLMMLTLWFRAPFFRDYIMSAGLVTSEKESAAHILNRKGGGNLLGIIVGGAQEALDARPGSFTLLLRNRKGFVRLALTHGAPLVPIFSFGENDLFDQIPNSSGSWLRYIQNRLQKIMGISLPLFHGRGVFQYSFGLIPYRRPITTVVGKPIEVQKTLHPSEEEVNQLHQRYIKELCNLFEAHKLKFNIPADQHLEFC
Assay: Measurement of human MGAT2 inhibitory activity
Format: biochemical
Settings: read-out: IC50 (concentration exhibiting 50% enzyme inhibition), Table 53
pIC50: −log10 of the molar value.
Property Name: pIC50

compound="N#Cc1ccc(-n2nc3c(c2C(=O)N[C@H]2CC[C@H](O)CC2)C(=O)N[C@@]2(CCc4cc(OCC(F)(F)F)ccc42)C3)nc1 [II-130]" property_name=pIC50 value_measured=6.89

[1] Cc1ccc(-n2nc3c(c2C(=O)NCCS(N)(=O)=O)C(=O)N[C@@]2(CCc4cc(OCC(F)(F)F)ccc42)C3)cc1F [II-209]
[2] Cc1ccc(-n2nc3c(c2C(=O)NCC2(O)CC2)C(=O)N[C@@]2(CCc4cc(OCC(F)(F)F)ccc42)C3)nc1 [II-200]
[3] N#Cc1ccc(-n2nc3c(c2C(=O)NCC(F)(F)F)C(=O)N[C@]2(CCc4cc(OCC(F)(F)F)ccc42)C3)nc1 [II-244]
## Task Give the ascending ranking of the items by reported pIC50. Reply with the item labels sorted in the order that was asked for.
## Result 1, 3, 2
(1: 7.02, 3: 8.32, 2: 8.64)

---

Target: recombinant human MGAT2 (Homo sapiens (Human), UniProt Q3SYC2)
Assay: Measurement of human MGAT2 inhibitory activity
Type: biochemical
Settings: read-out: IC50 (concentration exhibiting 50% enzyme inhibition), Table 52
pIC50: −log10 of the molar value.
Property Name: pIC50

smiles_string=CS(=O)(=O)CC(=O)Nc1c2c(nn1CCOC(F)(F)F)C[C@]1(CCc3cc(OCCCC(F)(F)F)ccc31)NC2=O value_measured=7.03

[A] CS(=O)(=O)CCNC(=O)c1c2c(nn1CCC1CC1)C[C@]1(CCc3cc(OCC(F)(F)F)ccc31)NC2=O
[B] CS(=O)(=O)CC(=O)Nc1c2c(nn1C1CCCC1)C[C@]1(CCc3cc(OCC(F)(F)F)ccc31)NC2=O
[C] CS(=O)(=O)CC(=O)Nc1c2c(nn1C1CCCCC1)C[C@@]1(CCc3cc(OCC(F)(F)F)ccc31)NC2=O
[D] CS(=O)(=O)CC(=O)Nc1c2c(nn1CCN1CCCC1)C[C@]1(CCc3cc(OCCCC(F)(F)F)ccc31)NC2=O
[E] Cc1ccc(-n2nc3c(c2NC(=O)CS(C)(=O)=O)C(=O)N[C@]2(CCc4cc(OCC(F)(F)F)ccc42)C3)nc1
## Task Order the records by pIC50, with each subsequent value no larger than the one before. Reply with the item labels sorted in the order that was asked for.
## Result E, C, B, D, A
(E: 8.55, C: 7.70, B: 7.02, D: 6.58, A: 6.36)

[I] Cc1oncc1C(=O)Nc1c2c(nn1CCC1CC1)C[C@]1(CCc3cc(OCC(F)(F)F)ccc31)NC2=O
[II] CC1(C(=O)NCc2c3c(nn2CCC2CC2)C[C@]2(CCc4cc(OCC(F)(F)F)ccc42)NC3=O)COC1
## Task Of the two listed items, I and II , which carries the larger pIC50 figure? Select an item and report its label.
## Result II

[a] CCCCn1nc(NC(=O)CS(C)(=O)=O)c2c1C[C@]1(CCc3cc(OCCCC(F)(F)F)ccc31)NC2=O
[b] CS(=O)(=O)CC(=O)Nc1c2c(nn1CCC1CC1)C[C@]1(CCc3cc(CN4CC(F)(F)C4)ccc31)NC2=O
## Task Between the entries labeled a and b , whose measured pIC50 is lower? Select an item and report its label.
## Result a
(a: 6.40, b: 7.14)

[P] CCS(=O)(=O)NCc1c2c(nn1CCC1CC1)C[C@]1(CCc3cc(OCC(F)(F)F)ccc31)NC2=O
[Q] CS(=O)(=O)CC(=O)NCc1c2c(nn1CCC1CC1)C[C@]1(CCc3cc(OCCCC(F)(F)F)ccc31)NC2=O
## Task Of the two listed items, P and Q , which carries the larger pIC50 figure? Select an item and report its label.
## Result Q

---

Target: recombinant human MGAT2 (Homo sapiens (Human), UniProt Q3SYC2)
Assay: Measurement of human MGAT2 inhibitory activity
Format: biochemical
Conditions: read-out: IC50 (concentration exhibiting 50% enzyme inhibition), Table 52
Text: A full-length human MGAT2 gene to which a Flag-tag had been added at the N-terminal was inserted into pFastBac (from Invitrogen). A recombinant baculovirus was produced in accordance with the protocol for a Bac-to-Bac baculovirus expression system (produced by Invitrogen), and Sf-9 cells were infected therewith. The cells were collected and sonicated, and then the membrane fraction was collected through centrifugation. […]
Property Name: IC50 (nM)

smiles_string=Cc1ccc(-n2nc3c(c2NC(=O)CS(C)(=O)=O)C(=O)N[C@@]2(CCc4cc(OCCCC(F)(F)F)ccc42)C3)cc1 property_name=IC50 measure_unit=nM value_measured=2.5
smiles_string=CS(=O)(=O)CC(=O)Nc1c2c(nn1-c1cccc(C3CC3)c1)C[C@]1(CCc3cc(OCC(F)(F)F)ccc31)NC2=O property_name=IC50 measure_unit=nM value_measured=240
smiles_string=CS(=O)(=O)CC(=O)Nc1c2c(nn1-c1ccccn1)C[C@]1(CCc3cc(F)cc(F)c31)NC2=O property_name=IC50 measure_unit=nM value_measured=86

[P] O=C1N[C@@]2(CCc3cc(OCC(F)(F)F)ccc32)Cc2nn(CCC3CC3)c(-c3noc(=O)[nH]3)c21
[Q] CS(=O)(=O)CC(=O)Nc1c2c(nn1CCc1ccc(F)cc1)C[C@]1(CCc3cc(OCC(F)(F)F)ccc31)NC2=O
## Task Between the entries labeled P and Q , whose measured IC50 is lower? Select an item and report its label.
## Result P

[A] CS(=O)(=O)CC(=O)Nc1c2c(nn1-c1ccccn1)C[C@]1(CCOc3cc(OCC(F)(F)F)ccc31)NC2=O
[B] CC(C)c1ccc(-n2nc3c(c2NC(=O)CS(C)(=O)=O)C(=O)N[C@@]2(CCc4cc(OCC(F)(F)F)ccc42)C3)nc1
## Task Of the two listed items, A and B , which carries the larger IC50 figure? Select an item and report its label.
## Result B
(B: 10 nM, A: 6.8 nM)

---

Target: recombinant human MGAT2 (Homo sapiens (Human))
Assay: Measurement of human MGAT2 inhibitory activity
Format: biochemical
Conditions: read-out: IC50 (concentration exhibiting 50% enzyme inhibition), Table 52
pIC50: −log10 of the molar value.
Property Name: pIC50

Use the examples below as a reference point.
molecule="CS(=O)(=O)CC(=O)Nc1c2c(nn1-c1ccc(C#N)cn1)C[C@@]1(CCc3cc(N4CC(C(F)(F)F)C4)ccc31)NC2=O [Compound I-122]" property_name=pIC50 value_measured=8.74
molecule="Cc1cc(C(=O)Nc2c3c(nn2CCC2CC2)C[C@]2(CCc4cc(OCC(F)(F)F)ccc42)NC3=O)no1 [Compound I-176]" property_name=pIC50 value_measured=6.74
molecule="CC1(NC(=O)c2c3c(nn2CCC2CC2)C[C@]2(CCc4cc(OCC(F)(F)F)ccc42)NC3=O)COC1 [Compound I-88]" property_name=pIC50 value_measured=6.57
molecule="O=C(Nc1c2c(nn1CCC1CC1)C[C@]1(CCc3cc(OCC(F)(F)F)ccc31)NC2=O)c1ccncn1 [Compound I-199]" property_name=pIC50 value_measured=6.40
molecule="O=C(CN1CCCC1=O)Nc1c2c(nn1CCC1CC1)C[C@]1(CCc3cc(OCCCC(F)(F)F)ccc31)NC2=O [Compound I-27]" property_name=pIC50 value_measured=6.22
molecule="O=C1N[C@@]2(CCc3cc(OCC(F)(F)F)ccc32)Cc2nn(CCC3CC3)c(NC(=O)c3onc4ccccc34)c21 [Compound I-177]" property_name=pIC50 value_measured=6.21

[1] CS(=O)(=O)CC(=O)Nc1c2c(nn1CCC1CC1)C[C@]1(CCc3cc(OCCCC(F)(F)F)ccc31)NC2=O [Compound I-2]
[2] COCCCCn1nc2c(c1NC(=O)CS(C)(=O)=O)C(=O)N[C@@]1(CCc3cc(OCC(F)(F)F)ccc31)C2 [Compound I-251]
## Task Of the two listed items, 1 and 2 , which carries the larger pIC50 figure? Select an item and report its label.
## Result 1
(1: 8.87, 2: 6.31)

---

Experiment: Metabolism stability test
Format: in vitro ADME
Conditions: human liver microsomes, 30 minutes, 37° C., NADPH, 0.5 μmol/L of test compound
Method: Using commercially available pooled human hepatic microsomes, the compound of the present invention was reacted for a constant time, a remaining rate was calculated by comparing a reacted sample and an unreacted sample, thereby, a degree of metabolism of the compound of the present invention in liver was assessed. […]
Property Name: Remaining rate (%)

smiles_string=O=C1N[C@@]2(CCc3cc(OCCCC(F)(F)F)ccc32)Cc2nn(CCC3CC3)c(-c3nn[nH]n3)c21 property_name="Remaining rate (%)" value_measured=78.2
smiles_string=CS(=O)(=O)CC(=O)Nc1c2c(nn1-c1ccc(F)c(F)c1)C[C@]1(CCOc3cc(CCC(F)(F)F)ccc31)NC2=O property_name="Remaining rate (%)" value_measured=104
smiles_string=O=C1N[C@@]2(CCOc3cc(OCCCC(F)(F)F)ccc32)Cc2nn(CCC3CC3)c(-c3nn[nH]n3)c21 property_name="Remaining rate (%)" value_measured=94
smiles_string=CS(=O)(=O)CC(=O)Nc1c2c(nn1-c1ccc(C#N)cn1)C[C@@]1(CCc3cc(OCC(F)(F)F)ccc31)NC2=O property_name="Remaining rate (%)" value_measured=89
smiles_string=CS(=O)(=O)CC(=O)Nc1c2c(nn1-c1ccc(C#N)cn1)C[C@](c1ccc(OCC(F)(F)F)cc1F)(C(F)(F)F)NC2=O property_name="Remaining rate (%)" value_measured=100
smiles_string=CS(=O)(=O)CC(=O)Nc1c2c(nn1-c1ccc(C(F)F)cc1)C[C@]1(CCc3cc(OCC(F)(F)F)ccc31)NC2=O property_name="Remaining rate (%)" value_measured=99.9

These data points were gathered from patent US11198695B2.
